ASSAYED_SYSTEM: human UGPPase (Homo sapiens)
Construct: made in house; host or cells: E. coli AD494(DE3), plasmid pET11a-AAD15563.1
Sequence (O95848 whole entry): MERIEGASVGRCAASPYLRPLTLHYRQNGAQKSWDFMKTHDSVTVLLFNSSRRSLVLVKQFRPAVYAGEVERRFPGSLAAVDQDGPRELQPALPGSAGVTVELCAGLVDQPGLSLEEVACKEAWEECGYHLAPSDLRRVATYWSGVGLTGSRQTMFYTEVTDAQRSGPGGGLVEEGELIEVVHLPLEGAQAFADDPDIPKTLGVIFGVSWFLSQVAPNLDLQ
MEASUREMENT_PROTOCOL: UGPPase activity measurement (G1P produced, coupled NADH read-out), substrate specificity and UDPG dependence, human recombinant enzyme
Type: biochemical
EXPERIMENTAL_SETUP: 5 mM of corresponding substrate, UDPG = 100%
MEASURED_PARAMETER: % activity with respect to UDPG

> print(dat)
                                 cpd.smiles  recorded.measurement
1  O=c1ccn([C@@H]2O[C@H](COP(=O)(O)OP(=O)(O)OP(=O)(O)O)[C@@H](O)[C@H]2O)c(=O)[nH]1                   bdl
2  Nc1ncnc2c1ncn2[C@@H]1O[C@H](COP(=O)(O)OP(=O)(O)O)[C@@H](O)[C@H]1O                   bdl
3  Nc1ccn([C@@H]2O[C@H](COP(=O)(O)OP(=O)(O)O[C@H]3O[C@H](CO)[C@@H](O)[C@H](O)[C@H]3O)[C@@H](O)[C@H]2O)c(=O)n1                    3%
4  O=C(O)[C@H]1O[C@H](OP(=O)(O)OP(=O)(O)OC[C@H]2O[C@@H](n3ccc(=O)[nH]c3=O)[C@H](O)[C@@H]2O)[C@H](O)[C@@H](O)[C@@H]1O                   bdl
